Entries and their Activity values follow.
TESTED_TARGET: Histone-lysine N-methyltransferase EHMT2 (Mus musculus)
ASSAY_PROTOCOL: Inhibition of His-sumo-tagged BALB/c mouse thymus histone methyltransferase G9a (969 to 1263 residues) catalytic domain expressed in Escherichia coli BL21 (DE3) assessed as response unit at 10 to 100 uM by SPR assay
TEST_READOUT: Activity (RU)

[
  {
    "COMPOUND": "CN(C)C(=O)Nc1ccc(CN2CCC(C(O)(c3ccc(C(F)(F)F)cc3)c3ccc(C(F)(F)F)cc3)CC2)cc1",
    "TESTED_TARGET": "Histone-lysine N-methyltransferase EHMT2 (Mus musculus)",
    "READOUT_VALUE": 0.07
  },
  {
    "COMPOUND": "O=[N+]([O-])c1ccc(NCCc2nc3ccccc3[nH]2)c(Cl)c1",
    "TESTED_TARGET": "Histone-lysine N-methyltransferase EHMT2 (Mus musculus)",
    "READOUT_VALUE": 0.02
  },
  {
    "COMPOUND": "C=CCn1c(CNc2ccc(I)cc2)nnc1SC(C)C(=O)N/N=C/c1ccc(O)cc1O (centres undefined)",
    "TESTED_TARGET": "Histone-lysine N-methyltransferase EHMT2 (Mus musculus)",
    "READOUT_VALUE": 0.17
  },
  {
    "COMPOUND": "CCCCC1S/C(=N/N=C/c2c(OS(=O)(=O)c3ccc(OCC)cc3)ccc3ccccc23)NC1=O (centres undefined)",
    "TESTED_TARGET": "Histone-lysine N-methyltransferase EHMT2 (Mus musculus)",
    "READOUT_VALUE": 0.01
  }
]
